Values compiled from patent US8420820B2.

system: PDK1 kinase activity in PC3 cells (phospho-T308-PKB); experiment: Cellular testing of PDK1 kinase inhibitors in PC3 cells (Luminex, phospho-T308-PKB); format: cell-based; details: Homo sapiens, PC-3, 0.5 h, 30 min with test substance, serum-free, phospho-T308-PKB by Luminex, read-out: IC50 [PC3 P-PKB Thr308]
recorded.metric: IC50

Example entries begin here.
CCc1cc(-c2c[nH]c3ncc(-c4ncc(-c5cccc(N)c5)o4)cc23)nc(N)n1 [Compound A42] | 10 to 20 µM
Nc1nc(-c2c[nH]c3ncccc23)cc(C2(O)CCN(C(=O)OCc3ccccc3)CC2)n1 [Compound A113] | 1 to 10 µM
CCc1cc(-c2c[nH]c3ncc(-c4cnn(CC(=O)N(C)C)c4)cc23)nc(N)n1 [Compound A34] | 10 to 20 µM
CC(C)n1cc(-c2cnc3[nH]cc(-c4cc(C5(O)CCCC5)nc(N)n4)c3c2)cn1 [Compound A54] | 10 to 20 µM

So for CC(C)n1cc(-c2cnc3[nH]cc(-c4cc(CCC(=O)N(C)C)nc(N)n4)c3c2)cn1 [Compound A101] , the logged IC50 turned out to be 10 to 20 µM

So for CC(C)n1cc(-c2cnc3[nH]cc(-c4cc(CCn5ccnc5)nc(N)n4)c3c2)cn1 [Compound A110] , the logged IC50 turned out to be 10 to 20 µM

So for CCc1cc(-c2c[nH]c3ncc(-c4cnn(C5CCN(S(C)(=O)=O)CC5)c4)cc23)nc(N)n1 [Compound A44] , the logged IC50 turned out to be 1 to 10 µM

So for CCCCc1cc(-c2c[nH]c3ncc(-c4cnn(CC(=O)N5CCCCC5)c4)cc23)nc(N)n1 [Compound A58] , the logged IC50 turned out to be 1 to 10 µM
